The values you see were collected from the Kinase Knowledgebase extract (Sharma et al. 2016).

measured target: UniProt P00533
test conditions: a431
Class membership depends on IC50 alone; the intervals are low-valued: < 8 nM; mid-valued: ≥ 8 nM and < 20 nM; high-valued: ≥ 20 nM

compound | label value
C=CC(=O)N1CC[C@H](Oc2cc3c(Nc4ccc(F)c(Cl)c4F)ncnc3cc2OC)C[C@H]1C(=O)NCCN(C)C | low-valued
CC#CC(=O)N1CCC(Oc2cc3c(Nc4ccc(F)c(Cl)c4F)ncnc3cc2OC)CC1 | high-valued
C=CC(=O)N1CCC(Oc2cc3c(Nc4ccc(F)c(Cl)c4)ncnc3cc2OC)CC1 | mid-valued
C=CC(=O)N1CCC(Oc2cc3c(Nc4ccc(F)c(Cl)c4F)ncnc3cc2OCCOC)CC1 | low-valued
C=CC(=O)N1CCC(Oc2cc3c(Nc4ccc(C(C)C)cc4)ncnc3cc2OC)CC1 | high-valued
C=CC(=O)N1CC[C@H](Oc2cc3c(Nc4ccc(F)c(Cl)c4F)ncnc3cc2OC)C[C@H]1C(=O)NC(C)C | low-valued
C=CC(=O)N1CC[C@@H](Oc2cc3c(Nc4ccc(F)c(Cl)c4F)ncnc3cc2OC)C[C@@H]1C(=O)NC | low-valued
C=CC(=O)NCCOc1cc2c(Nc3ccc(F)c(Cl)c3F)ncnc2cc1OC | high-valued
C=CC(=O)N1CCCC(Oc2cc3c(Nc4ccc(F)c(Cl)c4F)ncnc3cc2OC)C1 (stereo unspecified) | low-valued
C=CC(=O)N1CCC(Oc2cc3c(Nc4ccc(Cl)c(C)c4)ncnc3cc2OC)CC1 | high-valued
COC(=O)/C=C\C(=O)N1CCC(Oc2cc3c(Nc4ccc(F)c(Cl)c4F)ncnc3cc2OC)CC1 | mid-valued
C=CC(=O)N1CC[C@H](Oc2cc3c(Nc4ccc(OCc5ccccn5)c(Cl)c4)ncnc3cc2OC)C1 | mid-valued
C=C(CN1CCOCC1)C(=O)N1CCC(Oc2cc3c(Nc4ccc(F)c(Cl)c4F)ncnc3cc2OC)CC1 | mid-valued
C=CC(=O)N1CCC(Oc2cc3c(Nc4ccc(C)c(C)c4)ncnc3cc2OC)CC1 | mid-valued
COc1cc2ncnc(Nc3ccc(Cl)c(Cl)c3F)c2cc1OC1CCN(C(=O)/C=C\C(=O)O)CC1 | high-valued
COc1cc2ncnc(Nc3ccc(F)c(Cl)c3F)c2cc1O[C@H]1CCN(C(=O)/C=C/CN(C)C)C1 | low-valued
COc1cc2ncnc(Nc3ccc(F)c(Cl)c3F)c2cc1OC1CCN(C(=O)/C=C/C(=O)NO)CC1 | high-valued
COc1cc2ncnc(Nc3ccc(F)c(Cl)c3F)c2cc1OC1CN(C(=O)/C=C/Cl)C1 | high-valued
COc1cc2ncnc(Nc3ccc(Cl)c(Cl)c3F)c2cc1OC1CCN(C(=O)/C=C\Cl)CC1 | mid-valued
C=CC(=O)N1CCC(Oc2cc3c(Nc4ccc5c(c4)CCC5)ncnc3cc2OC)CC1 | high-valued
COc1cc2ncnc(Nc3cccc(Cl)c3F)c2cc1OC1CCN(C(=O)CO)CC1 | high-valued
C=CC(=O)N1CCC(Oc2cc3c(Nc4cccc(Cl)c4C)ncnc3cc2OC)CC1 | mid-valued
C=CC(=O)N1CCC(Oc2cc3c(Nc4ccc(F)c(Cl)c4F)ncnc3cc2OCCCN2CCOCC2)CC1 | low-valued
C=CC(=O)N1CC[C@@H](Oc2cc3c(Nc4ccc(F)c(Cl)c4F)ncnc3cc2OC)C[C@@H]1C(=O)NO | low-valued
C=CC(=O)N1CCC(Oc2cc3c(Nc4cccc(N(C)C)c4)ncnc3cc2OC)CC1 | high-valued
C=CC(=O)N1CC[C@H](Oc2cc3c(Nc4ccc(F)c(Cl)c4F)ncnc3cc2OC)C[C@H]1C(N)=O | low-valued
C=CC(=O)N1CC(Oc2cc3c(Nc4cccc(Cl)c4F)ncnc3cc2OC)C1 | low-valued
C=C(CN(C)C)C(=O)N1CC(Oc2cc3c(Nc4ccc(F)c(Cl)c4F)ncnc3cc2OC)C1 | high-valued
COc1cc2ncnc(Nc3cccc(Cl)c3F)c2cc1OC1CN(C(=O)/C=C/CN(C)C)C1 | mid-valued
C=CC(=O)N1CCC(Oc2cc3c(Nc4cccc([N+](=O)[O-])c4)ncnc3cc2OC)CC1 | mid-valued
CN(C)C/C=C/C(=O)N1CC[C@H](Oc2ccc3ncnc(Nc4ccc(F)c(Cl)c4F)c3c2)C1 | high-valued
C=CC(=O)N1CC[C@H](Oc2cc3c(Nc4ccc(F)c(Cl)c4F)ncnc3cc2OC)C[C@H]1C(=O)NCCO | low-valued
COc1cc2ncnc(Nc3ccc(F)c(Cl)c3F)c2cc1OC1CN(C(=O)/C=C\Cl)C1 | low-valued
C=C(NC(C)=O)C(=O)N1CCC(Oc2cc3c(Nc4ccc(Cl)c(Cl)c4F)ncnc3cc2OC)CC1 | high-valued

###

measured target: EGFR (human), P00533 [Antiproliferation of H195 Cells Having Overexpressed EGFR T790 Mutant Kinase]
Sequence (P00533 whole entry, looked up, change not shown): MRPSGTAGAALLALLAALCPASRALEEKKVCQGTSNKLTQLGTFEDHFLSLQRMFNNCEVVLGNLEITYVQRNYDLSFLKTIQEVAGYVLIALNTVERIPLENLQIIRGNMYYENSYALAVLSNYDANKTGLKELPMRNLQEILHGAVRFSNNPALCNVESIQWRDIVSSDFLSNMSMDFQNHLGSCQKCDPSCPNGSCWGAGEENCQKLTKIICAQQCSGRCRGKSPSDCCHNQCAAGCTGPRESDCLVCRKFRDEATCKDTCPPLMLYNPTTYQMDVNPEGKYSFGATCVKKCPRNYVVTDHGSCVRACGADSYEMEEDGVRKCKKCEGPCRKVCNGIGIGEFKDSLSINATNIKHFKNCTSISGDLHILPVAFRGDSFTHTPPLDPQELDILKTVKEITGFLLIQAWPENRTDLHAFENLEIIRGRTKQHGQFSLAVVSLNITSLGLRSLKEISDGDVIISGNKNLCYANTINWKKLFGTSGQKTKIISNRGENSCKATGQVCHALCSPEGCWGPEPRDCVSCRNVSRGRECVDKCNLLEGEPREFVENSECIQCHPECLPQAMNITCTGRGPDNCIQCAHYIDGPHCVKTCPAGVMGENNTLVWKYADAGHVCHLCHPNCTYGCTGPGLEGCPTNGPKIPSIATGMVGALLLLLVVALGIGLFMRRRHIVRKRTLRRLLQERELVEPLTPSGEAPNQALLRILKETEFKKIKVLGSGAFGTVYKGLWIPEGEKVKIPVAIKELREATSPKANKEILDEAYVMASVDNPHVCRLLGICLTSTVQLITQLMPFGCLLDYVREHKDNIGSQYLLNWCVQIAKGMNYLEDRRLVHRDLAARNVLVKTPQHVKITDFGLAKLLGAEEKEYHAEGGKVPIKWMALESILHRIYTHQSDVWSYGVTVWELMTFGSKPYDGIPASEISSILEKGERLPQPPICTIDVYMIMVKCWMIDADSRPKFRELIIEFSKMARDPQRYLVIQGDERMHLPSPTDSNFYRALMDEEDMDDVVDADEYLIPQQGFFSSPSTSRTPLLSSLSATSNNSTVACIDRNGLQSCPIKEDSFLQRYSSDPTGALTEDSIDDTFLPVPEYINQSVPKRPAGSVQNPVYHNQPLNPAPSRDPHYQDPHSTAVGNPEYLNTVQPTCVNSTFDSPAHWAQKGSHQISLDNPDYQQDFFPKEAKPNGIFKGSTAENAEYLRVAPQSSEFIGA

molecular string | IC50
C=CC(=O)N1CC[C@@H](Oc2cc3c(Nc4ccc(F)c(Cl)c4F)ncnc3cc2OC)C[C@@H]1C(N)=O | 5.2 nM
C=CC(=O)N1CC[C@H](Oc2cc3c(Nc4ccc(F)c(Cl)c4F)ncnc3cc2OC)C1 | 80 nM
C=CC(=O)N1CCC(Oc2cc3c(Nc4cccc(Cl)c4F)ncnc3cc2OC)CC1 | 22 nM
C=CC(=O)N1CCC(Oc2cc3c(Nc4cccc(C)c4)ncnc3cc2OC)CC1 | 236 nM
C=CC(=O)N1CCC(Oc2cc3c(Nc4cccc(C=C)c4)ncnc3cc2OC)CC1 | 27 nM

###

Consider the following compounds and their measured log10 of IC50 readings.
measured target: EGFR (human)
test conditions: a431
result type: log10 of IC50 (log10 of the value in µM)

molecular string | measured target | result type | observed
C=CC(=O)N1CC[C@@H](Oc2cc3c(Nc4ccc(F)c(Cl)c4F)ncnc3cc2OC)C[C@@H]1C(=O)O | EGFR (human) | log10 of IC50 | -0.01
C=C(CO)C(=O)N1CCC(Oc2cc3c(Nc4ccc(Cl)c(Cl)c4F)ncnc3cc2OC)CC1 | EGFR (human) | log10 of IC50 | -1.36
C=CC(=O)N1CC[C@H](Oc2cc3c(Nc4ccc(Br)c(Cl)c4F)ncnc3cc2OC)C1 | EGFR (human) | log10 of IC50 | -2.30
COc1cc2ncnc(Nc3ccc(F)c(Cl)c3F)c2cc1OC1CCN(C(=O)C=C(C)C)CC1 | EGFR (human) | log10 of IC50 | -1.42
CNC(=O)/C=C/C(=O)N1CC(Oc2cc3c(Nc4ccc(F)c(Cl)c4F)ncnc3cc2OC)C1 | EGFR (human) | log10 of IC50 | -1.39
C=CC(=O)N1CCC(Oc2cc3c(Nc4cccc(Cl)c4OC)ncnc3cc2OC)CC1 | EGFR (human) | log10 of IC50 | -2.52
CNC(=O)/C=C/C(=O)N1CCC(Oc2cc3c(Nc4ccc(F)c(Cl)c4F)ncnc3cc2OC)CC1 | EGFR (human) | log10 of IC50 | -1.32
C=CC(=O)N1CC(Oc2cc3c(Nc4cccc(C#N)c4)ncnc3cc2OC)C1 | EGFR (human) | log10 of IC50 | -1.77
C=CC(=O)N1CCC(Oc2cc3c(Nc4cccc(S)c4)ncnc3cc2OC)CC1 | EGFR (human) | log10 of IC50 | -0.52

###

Consider the following compounds and their measured log10 IC50 readings.
measured target: EGFR (human) (UniProt P00533)
Sequence (P00533 whole entry, looked up): as the sequence (P00533 whole entry, looked up, change not shown) above
test conditions: a431
result type: log10 IC50 (log10 of the value in nM)

molecular string | log10 IC50
C=CC(=O)N1CCC(Oc2cc3c(Nc4ccc(F)c(C#N)c4)ncnc3cc2OC)CC1 | 0.90
C=C(CN1CCCCC1)C(=O)N1CC(Oc2cc3c(Nc4ccc(F)c(Cl)c4F)ncnc3cc2OC)C1 | 0.96
C=CC(=O)N1CC[C@H](Oc2cc3c(Nc4ccc(F)c(Cl)c4F)ncnc3cc2OC)C[C@H]1C(=O)NCCSC | 0.38
C=CC(=O)N1CCC(Oc2cc3c(Nc4ccc(Cl)c(C#N)c4)ncnc3cc2OC)CC1 | 1.54
COc1cc2ncnc(Nc3ccc(F)c(Cl)c3F)c2cc1OC1CCN(C(=O)/C=C\CN(C)C)CC1 | 0.78
C=CC(=O)N1CC(Oc2cc3c(Nc4cccc(Cl)c4)ncnc3cc2OC)C1 | 0.20
COC(=O)/C=C\C(=O)N1CC(Oc2cc3c(Nc4cccc(Cl)c4F)ncnc3cc2OC)C1 | 0.00
C=CC(=O)N1CC[C@@H](Oc2cc3c(Nc4ccc(Br)cc4F)ncnc3cc2OC)C[C@@H]1C(N)=O | 0.04
C=CC(=O)N1CC[C@@H](Oc2cc3c(Nc4ccc(F)c(Cl)c4F)ncnc3cc2OC)C1 | 2.35

###

measured target: EGFR (human), P00533 [Antiproliferation of H195 Cells Having Overexpressed EGFR T790 Mutant Kinase]

molecular string | IC50 / nM
C=CC(=O)N1CC[C@H](Oc2cc3c(Nc4ccc(Br)c(Cl)c4F)ncnc3cc2OC)C1 | 55
C=C(CN(C)C)C(=O)N1CC(Oc2cc3c(Nc4ccc(F)c(Cl)c4F)ncnc3cc2OC)C1 | 11
C=C(CN1CCOCC1)C(=O)N1CC(Oc2cc3c(Nc4ccc(F)c(Cl)c4F)ncnc3cc2OC)C1 | 8
C=CC(=O)N1CCC(Oc2cc3c(Nc4ccc(Br)c(C)c4)ncnc3cc2OC)CC1 | 48
C=CC(=O)N1CC(Oc2cc3c(Nc4ccc(F)c(Cl)c4F)ncnc3cc2OC)C1 | 1.5
C=CC(=O)N1CCC(Oc2cc3c(Nc4ccc(F)c(Cl)c4)ncnc3cc2OC)CC1 | 16
C=CC(=O)N1CC[C@H](Oc2cc3c(Nc4ccc(F)c(Cl)c4F)ncnc3cc2OC)C[C@H]1C(=O)NCCN(C)C | 30
C=CC(=O)N1CC(Oc2cc3c(N[C@H](C)c4ccccc4)ncnc3cc2OC)C1 | 156
C=CC(=O)N1CC[C@H](Oc2ccc3ncnc(Nc4ccc(F)c(Cl)c4F)c3c2)C1 | 413
